viability, T/C values for the compounds below.
System: K24384-001-R-PDC KRAS patient-derived spheroid viability;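 also: spheroids exposed to agents for 7 days before readout; 100% = DMSO vehicle control viability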
Test: Anticancer human tumor K24384-001-R-PDC patient-derived pancreatic adenocarcinoma cell line growth inhibition [KRAS2]
Conditions: second compound 1 µM; first compound 0.00316 µM; stronger effect = lower value; spheroids with HUVEC and MSC
Quick reminder: number only, in %, skip the unit.

These solved cases illustrate the format of a correct answer.
*Q* # viability, T/C lookup, item CC(C)n1nc(-c2ccc3oc(N)nc3c2)c2c(N)ncnc21 + C=CC(=O)N1CCN(c2nc(=O)n(-c3c(C)ccnc3C(C)C)c3nc(-c4c(O)cccc4F)c(F)cc23)C(C)C1
*A* 65.5

*Q* Can you share its viability, T/C? I mean this compound: CCN1CCN(Cc2ccc(Nc3ncc(F)c(-c4cc(F)c5nc(C)n(C(C)C)c5c4)n3)nc2)CC1 + CC1OCC2(CCN(c3cnc(Sc4ccnc(N)c4Cl)c(N)n3)CC2)C1N
*A* 59.6

*Q* Look up viability, T/C for this compound: CC(C)n1nc(-c2ccc3oc(N)nc3c2)c2c(N)ncnc21 + CNCc1ccccc1-c1csc(C(C)Nc2nc(C)nc3cc(OC)c(OC)cc23)c1
*A* 81.4

*Q* Which measured viability, T/C value corresponds to CN(C)C/C=C/C(=O)Nc1cc2c(Nc3ccc(F)c(Cl)c3)ncnc2cc1O[C@H]1CCOC1 + C=CC(=O)N1CCN(c2nc(=O)n(-c3c(C)ccnc3C(C)C)c3nc(-c4c(O)cccc4F)c(F)cc23)C(C)C1 ?
*A* 175

*Q* # lookup: viability, T/C of CN(C)C/C=C/C(=O)Nc1cc2c(Nc3ccc(F)c(Cl)c3)ncnc2cc1O[C@H]1CCOC1 + CC1OCC2(CCN(c3cnc(Sc4ccnc(N)c4Cl)c(N)n3)CC2)C1N
*A* 134

Next:
*Q* I'd like to know its viability, T/C. The compound in question is CC(C)n1nc(-c2ccc3oc(N)nc3c2)c2c(N)ncnc21 + CC1OCC2(CCN(c3cnc(Sc4ccnc(N)c4Cl)c(N)n3)CC2)C1N
*A* 54.7

*Q* I would be grateful if you could share the reported viability, T/C for Cn1ncnc1[C@H]1c2n[nH]c(=O)c3cc(F)cc(c23)N[C@@H]1c1ccc(F)cc1 + C=CC(=O)N1CCN(c2nc(=O)n(-c3c(C)ccnc3C(C)C)c3nc(-c4c(O)cccc4F)c(F)cc23)C(C)C1 .
*A* 96.4

*Q* viability, T/C for CC(=O)Nc1cccc(-n2c(=O)n(C3CC3)c(=O)c3c(Nc4ccc(I)cc4F)n(C)c(=O)c(C)c32)c1 + C=CC(=O)N1CCN(c2nc(OCC3CCCN3C)nc3c2CCN(c2cccc4cccc(C)c24)C3)CC1CC#N ?
*A* 21.5

*Q* Which viability, T/C is reported for this compound? Cn1ncnc1[C@H]1c2n[nH]c(=O)c3cc(F)cc(c23)N[C@@H]1c1ccc(F)cc1 + C=CC(=O)N1CCN(c2nc(OCC3CCCN3C)nc3c2CCN(c2cccc4cccc(C)c24)C3)CC1CC#N
*A* 103

*Q* Would you mind telling me what viability, T/C value was observed for CCN1CCN(Cc2ccc(Nc3ncc(F)c(-c4cc(F)c5nc(C)n(C(C)C)c5c4)n3)nc2)CC1 + CNCc1ccccc1-c1csc(C(C)Nc2nc(C)nc3cc(OC)c(OC)cc23)c1 ?
*A* 93.7

*Q* Any idea what viability, T/C was measured for Cn1ncnc1[C@H]1c2n[nH]c(=O)c3cc(F)cc(c23)N[C@@H]1c1ccc(F)cc1 + COc1cc2nc(C)nc(NC(C)c3cc(N)cc(C(F)(F)F)c3)c2cc1OC1CCOC1 ?
*A* 79.4
